Listing of entries alongside the reported pEC50.
- Tested on: Rat Ileal Uptake of [14C]-Taurocholate
- method description: In vivo assay of rat ileal uptake of [14C]-taurocholate into bile (ileal loop)
- reported conditions: rat ileal loop; read-out: TC-uptake Ileal Loop EC(50)
Answer as the number alone; pEC50 is minus log10 of concentration in mol/L.

Illustrative cases are given below, each with its answer.
- CCCC[C@]1(CC)CS(=O)(=O)c2ccc(OC)cc2[C@@H](c2ccccc2)[C@H]1O [Example 49]: 4.92
- CCCC[C@]1(CC)CS(=O)(=O)c2cc(OC)ccc2[C@@H](c2ccccc2)[C@H]1O [Example 25]: 4.70
- CCCC[C@]1(CC)CS(=O)(=O)c2ccccc2[C@@H](c2ccccc2)[C@H]1O [Example 6d]: 4.51

Challenge: Give its pEC50 value. Item: CCCC[C@]1(CC)CS(=O)(=O)c2ccc(NO)cc2[C@@H](c2ccccc2)[C@H]1O [Example 38]
Response given: 4.92

====

- measurement target: human IBAT (Homo sapiens)
- Construct: expressed in transfected cells; host or cells: Baby hamster kidney (BHK) cells, clone H14
- Sequence (Q12908 whole entry): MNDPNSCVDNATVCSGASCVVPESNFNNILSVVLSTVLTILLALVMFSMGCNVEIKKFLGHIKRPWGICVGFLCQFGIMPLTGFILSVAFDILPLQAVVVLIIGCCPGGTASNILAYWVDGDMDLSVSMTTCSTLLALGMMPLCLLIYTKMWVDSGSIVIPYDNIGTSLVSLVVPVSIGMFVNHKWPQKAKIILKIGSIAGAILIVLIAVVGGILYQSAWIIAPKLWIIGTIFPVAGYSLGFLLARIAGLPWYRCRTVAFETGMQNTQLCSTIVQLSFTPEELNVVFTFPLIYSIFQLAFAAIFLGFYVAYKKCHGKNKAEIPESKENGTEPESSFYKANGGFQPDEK
- method description: In vitro assay of IBAT-mediated uptake of [14C]-taurocholate (TC) in H14 cells
- Type: cell-based
- reported conditions: In Vitro Taurocholate Uptake, Table 10; read-out: Human TC IC50
experimental endpoint: log10 of IC50 (log10 of the value in nM)
Record value = log10 of IC50 given in nM.

• CCCCC1(CCCC)CS(=O)(=O)c2ccc(N(C)C)cc2[C@@H](c2ccc(OCc3ccc(CN(CC(=O)O)CC(=O)O)cc3)cc2)[C@H]1O (relative stereo) [Example 1427] = 0.30
• CCCCC1(CCCC)CS(=O)(=O)c2ccc(N(C)C)cc2[C@@H](c2ccc(OCCOCCC(C(=O)O)C(=O)O)cc2)[C@H]1O [Example 1432] = 1.41
• CCCCC1(CCCC)CS(=O)(=O)c2ccc(N(C)C)cc2[C@@H](c2ccc(OCCCCCNCC(=O)O)cc2)[C@H]1O [Example 1423] = 0.48
• CCCCC1(CCCC)CS(=O)(=O)c2ccc(N(C)C)cc2[C@@H](c2ccc(OCc3ccc(C[n+]4ccccc4)cc3)cc2)[C@H]1O.[Cl-] [Example 1425] = 0.30
• CCCCC1(CCCC)CS(=O)(=O)c2ccc(N(C)C)cc2[C@@H](c2ccc(OCCCCC(=O)O)cc2)[C@H]1O [Example 1404] = 1.00

Challenge: Returns the measured log10 of IC50 for the input compound. Input: CCCCC1(CCCC)CS(=O)(=O)c2ccc(N(C)C)cc2[C@@H](c2ccc(OCCCCCN(CCN(CC)CC)CCN(CC)CC)cc2)[C@H]1O [Example 1416]
Response given: 1.15

Challenge: What value of log10 of IC50 has been reported for the following compound? CCCCC1(CCCC)CS(=O)(=O)c2ccc(N(C)C)cc2[C@@H](c2ccc(OCC(=O)NCC(=O)O)cc2)[C@H]1O [Example 1403]
Response given: 1.36

Challenge: State the recorded log10 of IC50 for this entry: CCCCC1(CCCC)CS(=O)(=O)c2ccc(N(C)C)cc2[C@@H](c2ccc(OCCCCS(N)(=O)=O)cc2)[C@H]1O [Example 1405]
Response given: 1.32

Challenge: # log10 of IC50 lookup, item CCCCC1(CCCC)CS(=O)(=O)c2ccc(N(C)C)cc2[C@@H](c2ccc(OCc3cc[n+](C)cc3)cc2)[C@H]1O [Example 1428]
Response given: -0.15

Challenge: If you can, please state the reported log10 of IC50 value of CCCCC1(CCCC)CS(=O)(=O)c2ccc(N(C)C)cc2[C@@H](c2ccc(OCCCCCc3nn[nH]n3)cc2)[C@H]1O [Example 1420] .
Response given: 1.04

Challenge: Quick one: log10 of IC50 of CCCCC1(CCCC)CS(=O)(=O)c2ccc(N(C)C)cc2[C@@H](c2ccc(OCCCCCC(C(=O)O)C(=O)O)cc2)[C@H]1O [Example 1413] ?
Response given: 0.48

Challenge: Dear colleague, I am looking for the recorded log10 of IC50 of the following compound: CCCCC1(CCCC)CS(=O)(=O)c2ccc(N(C)C)cc2[C@@H](c2ccc(OCCCCCNCCc3cnc[nH]3)cc2)[C@H]1O [Example 1417]
Response given: 0.30

Challenge: // query log10 of IC50 value for entry CCCCC1(CCCC)CS(=O)(=O)c2ccc(N(C)C)cc2[C@@H](c2ccc(OCCCC[n+]3cccc(O)c3)cc2)[C@H]1O.CS(=O)(=O)[O-] [Example 1411]
Response given: 0.30
